- Measured Target: Cytochrome P450 3A4 (Homo sapiens)
- Method Summary: qHTS Assay for Inhibitors and Substrates of Cytochrome P450 3A4 (AID 884); further: nearly all actives have a fitted effect of over 50% in size
- Experimental Parameters: recombinant CYP3A4, Luciferin-PPXE luminescence; series mostly up to 57.1 µM
Records with an inconclusive call do not appear. Calls of active or inactive are those of the source. The call rests on the fitted dose curve; in most records, active means well fitted inhibition curve with a large enough effect; inconclusive means small, poorly fitted or top-dose-only effect; inactive means no such curve, though single readings can be large or run the other way.
Classes to choose from: y for active, n for inactive

Use the examples below as a reference point.
Molecule	Qualitative Label
O=C(O)CCCC[C@@H]1SC[C@H]2NC(=O)N[C@@H]12	n
CC(=O)OC1CC2C(C)(C)C(O)CC[C@@]2(C)C2CC[C@@]3(C)C(c4ccoc4)OC(=O)C4OC43[C@]12C (stereo not given in full)	y
C=C[C@](C)(O)CCC1C(=C)CC(O)C2C(C)(C)CCCC12C (stereo not given in full)	y
CC1=C(C(=O)O)N2C(=O)C(NC(=O)C(N)C3=CCC=CC3)C2SC1 (stereo not given)	n
NC(=O)NCC(N)C(=O)O (stereo not given)	n

Hello, I am checking results. What call was entered for C=CC1=C(C)/C(=C/c2[nH]c(Cc3[nH]c(/C=C4\NC(=O)C(C)=C4C=C)c(C)c3CCC(=O)O)c(CCC(=O)O)c2C)NC1=O ?
n

Also check C[C@]12CCC(=O)C=C1CCC1C2C(=O)C[C@]2(C)C1CC[C@]2(O)C(=O)CO (stereo not given in full)
n

Do the same for CC(=O)OCC(=O)[C@@]1(OC(C)=O)[C@H](C)C[C@H]2[C@@H]3C[C@H](F)C4=CC(=O)C=C[C@@]4(C)[C@]3(F)[C@H](O)C[C@@]21C please
n
